system: T1, recombinant human SDF-1α (Peprotech) (human, UniProt P48061 22-89)
T1 construct: Bought protein (Peprotech, cat. 300-28A); also called rh SDF-1α; Stromal cell-Derived Factor-1
T1 sequence (P48061 22-89 limits assumed): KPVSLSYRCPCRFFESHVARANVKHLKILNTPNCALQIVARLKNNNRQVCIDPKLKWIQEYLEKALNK
testProtocol: SPR (Biacore), antibody amine-coupled to CM5 chip, SDF-1 flowed at 5-40 nM right after dilution to maximize the dimer population, 1:1 Langmuir fit
readout: Kd (nM)

binder	readout	measuredNumber
2A5 human monoclonal antibody (antibody, V domains shown, Whole human monoclonal antibody with kappa light chain (VK L18), from a HuMAb Mouse; also called Z2/A5; Z2A5) VH: QVQLVQSGGGLVQPGGSLRLSCAASGFTFSSYWMSWVRQAPGKGLEWVANMNQDGSEKYYVDSVKGRFTISRDNAKNSLYLQMNSLRAEDTAVYYCARDLTGPYYYDYYGMDVWGQGTTVTVSS VL: DIQMIQSPSSLSASVGDRVTITCRASQGISSALAWYQQKPGKAPKLLIYDASSLESGVPSRFSGSGSGTDFTLTISSLQPEDFATYYCQQFNSYPRTFGQGTKVEIK	Kd	0.37
